Target: cGMP-specific 3',5'-cyclic phosphodiesterase (Homo sapiens, UniProt O76074)
Assay: Inhibition of his-tagged recombinant human PDE5A catalytic domain (E535 to Q860 residues) expressed in Escherichia coli BL21(DE3) using [3H]-cGMP as substrate incubated for 10 mins by SPA assay
pIC50: −log10 of the molar value.
Value Kind: pIC50

>>> measured_number("COc1ccc(CNc2nc(N(CCO)CCO)nc3c2ncn3C(C)C)cc1")
6.64

1: COc1ccc(CNc2nc(N(CCO)CCO)nc3c2[nH]c(=O)n3C(C)C)cc1
2: COc1ccc(CNc2nc(N(CCO)CCO)nc3c2cnn3C(C)C)cc1
Exercise: Field: lower recorded pIC50 (choose 1 or 2 ) Returns: label corresponding to the selected item.
Key: 2

---

Target: High affinity cGMP-specific 3',5'-cyclic phosphodiesterase 9A (Homo sapiens)
Sequence (O76083 whole entry, the tested form may be a part): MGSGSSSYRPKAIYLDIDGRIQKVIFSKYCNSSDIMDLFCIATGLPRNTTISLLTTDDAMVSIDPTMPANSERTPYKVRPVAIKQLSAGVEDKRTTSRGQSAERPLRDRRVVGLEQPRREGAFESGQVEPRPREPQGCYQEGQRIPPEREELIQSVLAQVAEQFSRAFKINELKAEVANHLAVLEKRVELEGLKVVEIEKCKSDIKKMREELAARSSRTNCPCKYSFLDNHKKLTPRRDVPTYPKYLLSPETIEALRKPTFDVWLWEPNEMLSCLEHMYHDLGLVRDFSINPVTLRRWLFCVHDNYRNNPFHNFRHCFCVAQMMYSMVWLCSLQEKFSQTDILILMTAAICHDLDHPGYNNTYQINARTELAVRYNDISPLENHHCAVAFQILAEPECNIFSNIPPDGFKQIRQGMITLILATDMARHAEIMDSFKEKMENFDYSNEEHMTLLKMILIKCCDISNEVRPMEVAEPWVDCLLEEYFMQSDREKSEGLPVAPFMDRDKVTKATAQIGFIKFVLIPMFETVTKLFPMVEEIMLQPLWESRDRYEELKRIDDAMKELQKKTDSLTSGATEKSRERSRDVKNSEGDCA
Test: Inhibition of his-tagged recombinant human PDE9A catalytic domain (P181 to K506 residues) expressed in Escherichia coli BL21(DE3) using [3H]-cGMP as substrate incubated for 10 mins by SPA assay
Value Kind: IC50

Some compounds with recorded IC50:
>>> result("COc1ccc(CNc2nc(N(CCO)CCO)nc3c2[nH]c(=O)n3C(C)C)cc1")
"> 10 µM"
>>> result("COc1ccc(CNc2nc(N(CCO)CCO)nc3c2ncn3C(C)C)cc1")
"> 10 µM"

Okay, now this compound:
Exercise: Given COc1ccc(CNc2nc(N(CCO)CCO)nc3c2cnn3C(C)C)cc1 , state its recorded IC50.
Key: > 10 µM

---

Target: Dual 3',5'-cyclic-AMP and -GMP phosphodiesterase 11A (Homo sapiens)
Sequence (Q9HCR9 whole entry): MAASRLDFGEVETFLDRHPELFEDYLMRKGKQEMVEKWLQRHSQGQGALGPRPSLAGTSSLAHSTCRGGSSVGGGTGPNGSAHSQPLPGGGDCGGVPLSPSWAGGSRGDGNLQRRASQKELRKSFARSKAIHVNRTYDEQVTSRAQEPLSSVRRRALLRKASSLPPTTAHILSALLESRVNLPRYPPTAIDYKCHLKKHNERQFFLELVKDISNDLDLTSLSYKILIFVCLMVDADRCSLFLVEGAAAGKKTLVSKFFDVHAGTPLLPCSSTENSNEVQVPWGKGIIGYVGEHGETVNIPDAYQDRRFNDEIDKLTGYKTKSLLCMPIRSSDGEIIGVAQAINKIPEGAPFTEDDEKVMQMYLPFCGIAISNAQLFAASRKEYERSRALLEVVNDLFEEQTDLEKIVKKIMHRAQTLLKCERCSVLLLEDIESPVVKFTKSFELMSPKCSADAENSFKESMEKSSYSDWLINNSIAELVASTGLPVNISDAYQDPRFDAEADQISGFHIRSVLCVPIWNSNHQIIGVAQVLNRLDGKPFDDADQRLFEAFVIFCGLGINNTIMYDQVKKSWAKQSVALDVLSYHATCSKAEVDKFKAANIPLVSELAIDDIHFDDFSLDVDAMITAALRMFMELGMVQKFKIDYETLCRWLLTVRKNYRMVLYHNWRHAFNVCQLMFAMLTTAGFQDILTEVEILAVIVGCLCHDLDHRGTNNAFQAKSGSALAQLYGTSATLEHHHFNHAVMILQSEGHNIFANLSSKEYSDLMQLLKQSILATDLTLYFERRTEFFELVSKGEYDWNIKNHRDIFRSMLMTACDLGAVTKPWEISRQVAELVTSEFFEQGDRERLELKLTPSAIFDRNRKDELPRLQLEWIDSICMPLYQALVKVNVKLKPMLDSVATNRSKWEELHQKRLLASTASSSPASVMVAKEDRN
Test: Inhibition of full-length recombinant human PDE11A using [3H]-cAMP as substrate incubated for 10 mins by SPA assay
pIC50: −log10 of the molar value.
Value Kind: pIC50

>>> result("COc1ccc(CNc2nc(N(CCO)CCO)nc3c2cnn3C(C)C)cc1")
"< 5.00"
>>> result("COc1ccc(CNc2nc(N(CCO)CCO)nc3c2[nH]c(=O)n3C(C)C)cc1")
"< 5.00"

Okay, now this compound:
Exercise: Given COc1ccc(CNc2nc(N(CCO)CCO)nc3c2ncn3C(C)C)cc1 , state its recorded pIC50.
Key: < 6.00

---

Collected IC50 values appear next to each entry.
Target: Dual specificity calcium/calmodulin-dependent 3',5'-cyclic nucleotide phosphodiesterase 1A (Homo sapiens, UniProt P54750)
Sequence (P54750 whole entry): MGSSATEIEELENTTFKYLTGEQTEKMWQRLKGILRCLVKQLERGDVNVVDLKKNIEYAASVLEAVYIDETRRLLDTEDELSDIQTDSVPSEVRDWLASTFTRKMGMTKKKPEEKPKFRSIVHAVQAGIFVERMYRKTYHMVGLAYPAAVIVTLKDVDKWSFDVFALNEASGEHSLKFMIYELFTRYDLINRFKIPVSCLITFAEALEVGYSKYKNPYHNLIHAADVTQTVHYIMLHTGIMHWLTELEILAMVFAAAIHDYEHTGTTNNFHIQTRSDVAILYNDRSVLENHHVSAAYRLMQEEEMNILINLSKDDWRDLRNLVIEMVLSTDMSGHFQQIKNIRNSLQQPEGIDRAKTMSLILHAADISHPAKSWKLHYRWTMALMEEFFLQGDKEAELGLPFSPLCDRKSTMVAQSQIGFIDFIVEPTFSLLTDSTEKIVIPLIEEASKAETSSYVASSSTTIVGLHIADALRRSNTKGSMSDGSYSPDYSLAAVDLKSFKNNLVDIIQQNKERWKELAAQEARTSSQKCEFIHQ
Assay: Inhibition of full-length recombinant human PDE1A using [3H]-cGMP as substrate incubated for 10 mins by SPA assay

Exercise: Given COc1ccc(CNc2nc(N(CCO)CCO)nc3c2ncn3C(C)C)cc1 , state its recorded IC50.
Key: > 1 µM

Exercise: Given COc1ccc(CNc2nc(N(CCO)CCO)nc3c2[nH]c(=O)n3C(C)C)cc1 , state its recorded IC50.
Key: > 10 µM

---

Collected pIC50 values appear next to each entry.
Target: High affinity 3',5'-cyclic-AMP phosphodiesterase 7A (Homo sapiens)
Sequence (Q13946 whole entry, the tested form may be a part): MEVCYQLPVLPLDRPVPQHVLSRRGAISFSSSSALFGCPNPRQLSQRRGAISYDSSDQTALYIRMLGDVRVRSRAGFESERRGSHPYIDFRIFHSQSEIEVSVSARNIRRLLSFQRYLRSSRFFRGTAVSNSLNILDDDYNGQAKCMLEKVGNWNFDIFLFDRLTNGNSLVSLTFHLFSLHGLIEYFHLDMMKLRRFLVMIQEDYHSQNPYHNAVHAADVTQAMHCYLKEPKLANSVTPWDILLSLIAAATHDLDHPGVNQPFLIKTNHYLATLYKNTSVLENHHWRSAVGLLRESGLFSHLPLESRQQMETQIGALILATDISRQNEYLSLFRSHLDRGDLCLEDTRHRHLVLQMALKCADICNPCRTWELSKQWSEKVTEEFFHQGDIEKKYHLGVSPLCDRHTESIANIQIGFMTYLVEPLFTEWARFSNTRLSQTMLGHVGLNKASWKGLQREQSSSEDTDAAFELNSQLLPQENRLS
Experiment: Inhibition of his-tagged recombinant human PDE7A catalytic domain (S130 to S482 residues) expressed in Escherichia coli BL21(DE3) using [3H]-cAMP as substrate incubated for 10 mins by SPA assay
pIC50: −log10 of the molar value.

Exercise: Given COc1ccc(CNc2nc(N(CCO)CCO)nc3c2ncn3C(C)C)cc1 , state its recorded pIC50.
Key: < 5.00

Exercise: Given COc1ccc(CNc2nc(N(CCO)CCO)nc3c2[nH]c(=O)n3C(C)C)cc1 , state its recorded pIC50.
Key: < 5.00

Exercise: Given COc1ccc(CNc2nc(N(CCO)CCO)nc3c2cnn3C(C)C)cc1 , state its recorded pIC50.
Key: < 5.00
